# Test system: Toxoplasma gondii RH tachyzoites
# protocol_details: % growth inhibition vs DMSO (48 h luciferase); higher = more inhibition
# condition_details: 10 µM
% growth inhibition listing for selected molecules.
quantity: % growth inhibition (%)

INSERT INTO results (molecule, limit_sign, reported_measurement) VALUES
  ('COc1ccc(-c2cc(=O)oc3c4c(ccc23)OCN(Cc2ccc(F)cc2)C4)cc1', '=', 63.1),
  ('CN(C)c1ccc(N=Cc2ccc(N3CCOCC3)cc2)cc1', '<', 0),
  ('CCOc1ccc(CN2CCN(CC(O)COc3ccc(OCC(O)CN4CCN(Cc5ccc(OCC)cc5)CC4)cc3)CC2)cc1 (configuration not stated)', '=', 4.15),
  ('Cc1cc(Nc2cccc(F)c2)nc(NCc2ccccc2)n1', '=', 97.3),
  ('O=C(Nc1ccc(-c2nc3cc4ccccc4cc3[nH]2)cc1)c1cccc(Br)c1', '=', 50.3),
  ('O=C(NC1CCN(Cc2ccccc2)CC1)c1cc(C(=O)NC2CCN(Cc3ccccc3)CC2)cc(C(=O)NC2CCN(Cc3ccccc3)CC2)c1', '=', 18.9),
  ('CC1CN(C(=O)c2sc3ccccc3c2Cl)CC(C)O1 (configuration not stated)', '=', 74);

###

% growth inhibition listing for selected molecules.
# Test system: Toxoplasma gondii RH tachyzoites
# protocol_details: % growth inhibition vs DMSO (48 h luciferase); higher = more inhibition
# condition_details: 10 µM
quantity: % growth inhibition (%)

INSERT INTO measurements (molecule, limit_sign, reported_measurement) VALUES
  ('CCOC(=O)C1=C(C)N=c2sc(=Cc3cc(Cl)ccc3O)c(=O)n2C1c1ccc(OC)cc1 (stereo not given)', '=', 59.4),
  ('COc1ccc(C2c3ccc4ccccc4c3Oc3ncn(CCCn4ccnc4)c(=N)c32)cc1OC (stereo not given)', '=', 65.4),
  ('COCCN(C(=O)Cc1cccs1)C(C(=O)NCc1ccc(OC)cc1)c1ccc(C(C)C)cc1 (stereo not given)', '=', 91.5),
  ('CCc1ccc(Nc2cc(C)c3ccc(O)cc3n2)cc1', '=', 97.8),
  ('Cc1ccc(CN2CCC(C(=O)Nc3ccc(-c4cc5ccccc5[nH]4)cc3)CC2)o1', '<', 0),
  ('CCOc1ccccc1CNC(=O)C1c2ccccc2C(=O)N(CC(C)C)C1c1cccs1 (stereo not given)', '=', 70.7),
  ('COc1ccc(/C=C2/SC(Nc3ccc(F)cc3)=NC2=O)c(OC)c1', '=', 92),
  ('O=C(NCC1Cc2cccc(-c3ccncc3)c2O1)c1csc2c1CCCC2 (stereo not given)', '=', 94.1),
  ('Cc1ccc2c(C)nc(Nc3nc(C)cc(-c4ccccc4)n3)nc2c1', '=', 70.4),
  ('CCCCc1ccc(NS(=O)(=O)c2cc3c4c(c2)CCN4C(=O)CC3)cc1', '=', 36.5);

###

# System: Toxoplasma gondii RH tachyzoites
# protocol_details: median egress time after A23187 ionophore; higher = stronger egress inhibition
# condition_details: 10 µM; pretreatment time: 24 h
quantity: median egress time (min)

INSERT INTO results (molecule, reported_measurement) VALUES
  ('Cc1ccc(C)c(-c2csc(Nc3ccc(C)c(C)c3)n2)c1', 3.2),
  ('Cc1cc(NC(=O)C2c3ccccc3C(=O)N(CC(C)C)C2c2cccs2)no1 (stereo unspecified)', 5.73),
  ('COc1cc(-c2nc(-c3ccccc3)c(-c3ccccc3)[nH]2)cc(OC)c1O', 2.93),
  ('COc1ccc(CCn2c(=N)c(C(=O)NCc3cccnc3)cc3c(=O)n4cccc(C)c4nc32)cc1', 2.13),
  ('Cn1c(C(=O)c2cccc3ccccc23)nc2ccccc21', 2.4),
  ('CCOc1cccc(C(=O)Nc2ccc(-c3nc4ccccc4[nH]3)cc2)c1', 1.87),
  ('O=C(NC1CCN(Cc2ccccc2)CC1)c1cc(C(=O)NC2CCN(Cc3ccccc3)CC2)cc(C(=O)NC2CCN(Cc3ccccc3)CC2)c1', 2.33),
  ('CCCCCCc1cc2cc(-c3csc(C=Cc4ccccc4)n3)c(=O)oc2cc1O', 1.94),
  ('CNCCCNc1ccnc2cc(Cl)ccc12', 2.4),
  ('Cc1cc(C)c2c(c1)OCN(Cc1ccccc1Cl)C2', 2),
  ('CC1(c2ccccc2)Nc2ccccc2-c2nc3ccccc3n21 (stereo unspecified)', 4.13);
